# procedure_text: Evaluated for ionization constant (pKa4) by titrations performed in the presence of EtOH and at a dielectric constant of 57
# Type: physicochemical
# experimental_conditions: EtOH cosolvent; read-out: pKa4
result_type: pKa

Asked: Which pKa reading was recorded for the compound "CCOC(=O)CN(CCN(CC(=O)OCC)Cc1ccccc1O)Cc1ccccc1O" ?
Given back: 1.21

###

# procedure_text: Evaluated for ionization constant (pKa6) by titrations performed in the presence of MeOH at a dielectric constant of 56
# Assay type: physicochemical
# experimental_conditions: MeOH cosolvent, dielectric constant 56; read-out: pKa6
result_type: pKa
Write no unit; give the number alone.

Asked: Suppose we examine the molecule "O=C(O)CN(CCN(CC(=O)O)Cc1ccccc1O)Cc1ccccc1O" ; what pKa value has been reported?
Given back: 1.11

###

# procedure_text: Evaluated for ionization constant (pKa4) by titrations performed in presence of a MeOH and at a dielectric constant of 62
# Format: physicochemical
# experimental_conditions: MeOH cosolvent; read-out: pKa4
result_type: pKa
Lab note: jot down the number only; don't add units.

Asked: Given "COC(=O)CN(CCN(CC(=O)OC)Cc1ccccc1O)Cc1ccccc1O" , state its recorded pKa.
Given back: 1.1

###

# procedure_text: Evaluated for ionization constant (pKa3) by titrations performed in the presence of EtOH and at a dielectric constant of 63
# Type: physicochemical
# experimental_conditions: EtOH cosolvent; read-out: pKa3
result_type: pKa
Answer with a bare number; do not write a unit.

Asked: Query: pKa; subject: "CCOC(=O)CN(CCN(CC(=O)OCC)Cc1ccccc1O)Cc1ccccc1O"
Given back: 5.45

###

# procedure_text: Evaluated for ionization constant (pKa4) by titrations performed in presence of MeOH solvent at a dielectric constant of 78
# Type: physicochemical
# experimental_conditions: MeOH cosolvent; read-out: pKa4
result_type: pKa
Quick one: just the number, no unit, thanks!

Asked: # input compound: "COC(=O)CN(CCN(CC(=O)[O-])Cc1ccccc1O)Cc1ccccc1O.[Na+]" ; wanted: its pKa
Given back: 2.61

###

# procedure_text: Evaluated for ionization constant (pKa5) by titrations performed in the presence of MeOH at a dielectric constant of 56
# Format: physicochemical
# experimental_conditions: MeOH cosolvent; read-out: pKa5
result_type: pKa
# output: bare number, no unit

Asked: Given "O=C(O)CN(CCN(CC(=O)O)Cc1ccccc1O)Cc1ccccc1O" , state its recorded pKa.
Given back: 2.34

###

# procedure_text: Evaluated for ionization constant (pKa4) by titrations performed in presence of MeOH solvent at a dielectric constant of 56
# Type: physicochemical
# experimental_conditions: MeOH cosolvent; read-out: pKa4
result_type: pKa
// print number alone

Asked: Entry "COC(=O)CN(CCN(CC(=O)[O-])Cc1ccccc1O)Cc1ccccc1O.[Na+]" has what pKa?
Given back: 2.77

###

# procedure_text: Evaluated for ionization constant (pKa2) by titrations performed in presence of a MeOH and at a dielectric constant of 62
# Type: physicochemical
# experimental_conditions: MeOH cosolvent, dielectric constant 62; read-out: pKa2
result_type: pKa
// print number alone

Asked: Need pKa, item "COC(=O)CN(CCN(CC(=O)OC)Cc1ccccc1O)Cc1ccccc1O"
Given back: 11.3

###

# procedure_text: Partition coefficient (logP) (chloroform)
# Type: physicochemical
result_type: logP
Output: the number by itself.

Asked: # logP lookup, item "CCOC(=O)CN(CCN(CC(=O)[O-])Cc1ccccc1O)Cc1ccccc1O.[Na+]"
Given back: 0.18

Asked: Which logP is reported for this molecule? "COC(=O)CN(CCN(CC(=O)[O-])Cc1ccccc1O)Cc1ccccc1O.[Na+]"
Given back: -0.29

Asked: What value of logP has been recorded for this entry: "CCOC(=O)CN(CCN(CC(=O)OCC)Cc1ccccc1O)Cc1ccccc1O"
Given back: 3.35

###

# procedure_text: Evaluated for ionization constant (pKa4) by titrations performed in presence of a MeOH and at a dielectric constant of 49
# Format: physicochemical
# experimental_conditions: MeOH cosolvent; read-out: pKa4
result_type: pKa
Just the number, please.

Asked: Return reported pKa; argument: "COC(=O)CN(CCN(CC(=O)OC)Cc1ccccc1O)Cc1ccccc1O"
Given back: 0.69

###

# procedure_text: Evaluated for ionization constant (pKa3) by titrations performed in presence of MeOH solvent at a dielectric constant of 56
# Assay type: physicochemical
# experimental_conditions: MeOH cosolvent; read-out: pKa3
result_type: pKa
Give the figure only, with no unit attached.

Asked: Find the recorded pKa belonging to "COC(=O)CN(CCN(CC(=O)[O-])Cc1ccccc1O)Cc1ccccc1O.[Na+]" and report it.
Given back: 7.48

###

# procedure_text: Evaluated for ionization constant (pKa3) by titrations performed in the absence of a cosolvent and at a dielectric constant of 78
# Assay type: physicochemical
# experimental_conditions: no cosolvent; read-out: pKa3
result_type: pKa
Answer as a number with no unit attached.

Asked: Returns the measured pKa for the input compound. Input: "O=C(O)CN(CCN(CC(=O)O)Cc1ccccc1O)Cc1ccccc1O"
Given back: 8.34

###

# procedure_text: Evaluated for ionization constant (pKa2) by titrations performed in the presence of MeOH at a dielectric constant of 56
# Type: physicochemical
# experimental_conditions: MeOH cosolvent, dielectric constant 56; read-out: pKa2
result_type: pKa
Please state the value as a number alone, without comment.

Asked: // pKa lookup, key: "O=C(O)CN(CCN(CC(=O)O)Cc1ccccc1O)Cc1ccccc1O"
Given back: 12.5

###

# procedure_text: Evaluated for ionization constant (pKa6) by titrations performed in the presence of MeOH at a dielectric constant of 62
# Type: physicochemical
# experimental_conditions: MeOH cosolvent, dielectric constant 62; read-out: pKa6
result_type: pKa
Number only, no unit.

Asked: # query: pKa of entry "O=C(O)CN(CCN(CC(=O)O)Cc1ccccc1O)Cc1ccccc1O"
Given back: 1.05

###

# procedure_text: Evaluated for ionization constant (pKa3) by titrations performed in the presence of MeOH at a dielectric constant of 49
# Format: physicochemical
# experimental_conditions: MeOH cosolvent; read-out: pKa3
result_type: pKa
Answer as a number with no unit attached.

Asked: What does the record list as pKa for "O=C(O)CN(CCN(CC(=O)O)Cc1ccccc1O)Cc1ccccc1O" ?
Given back: 8.37

###

# procedure_text: Evaluated for ionization constant (pKa5) by titrations performed in presence of MeOH solvent at a dielectric constant of 56
# Type: physicochemical
# experimental_conditions: MeOH cosolvent; read-out: pKa5
result_type: pKa
Lab note: jot down the number only; don't add units.

Asked: Entry under review: "COC(=O)CN(CCN(CC(=O)[O-])Cc1ccccc1O)Cc1ccccc1O.[Na+]" . Reported pKa?
Given back: 0.97

###

# procedure_text: Evaluated for ionization constant (pKa1) by titrations performed in absence of a cosolvent at a dielectric constant of 78
# Format: physicochemical
# experimental_conditions: no cosolvent, dielectric constant 78; read-out: pKa1
result_type: pKa

Asked: Return reported pKa; argument: "COC(=O)CN(CCN(CC(=O)[O-])Cc1ccccc1O)Cc1ccccc1O.[Na+]"
Given back: 12.1

###

# procedure_text: Evaluated for ionization constant (pKa3) by titrations performed in presence of a MeOH and at a dielectric constant of 56
# Format: physicochemical
# experimental_conditions: MeOH cosolvent; read-out: pKa3
result_type: pKa
Please reply with the number alone, leaving off any unit.

Asked: For "COC(=O)CN(CCN(CC(=O)OC)Cc1ccccc1O)Cc1ccccc1O" , what is its reported pKa?
Given back: 5.46

###

# procedure_text: Evaluated for ionization constant (pKa3) by titrations performed in the presence of MeOH at a dielectric constant of 62
# Format: physicochemical
# experimental_conditions: MeOH cosolvent; read-out: pKa3
result_type: pKa
Simply state the number, no unit and no words.

Asked: pKa lookup needed for "O=C(O)CN(CCN(CC(=O)O)Cc1ccccc1O)Cc1ccccc1O" , thanks.
Given back: 8.36

###

# procedure_text: Evaluated for ionization constant (pKa1) by titrations performed in absence of cosolvent and at a dielectric constant of 78
# Format: physicochemical
# experimental_conditions: no cosolvent, dielectric constant 78; read-out: pKa1
result_type: pKa
# answer = number (no unit)

Asked: Item under review: "CCOC(=O)CN(CCN(CC(=O)[O-])Cc1ccccc1O)Cc1ccccc1O.[Na+]" . Reported pKa?
Given back: 12.3

###

# procedure_text: Evaluated for ionization constant (pKa3) by titrations performed in absence of cosolvent and at a dielectric constant of 78
# Type: physicochemical
# experimental_conditions: no cosolvent; read-out: pKa3
result_type: pKa
Please give the numeric answer without any surrounding text.

Asked: So what's the measured pKa for this one? "COC(=O)CN(CCN(CC(=O)[O-])Cc1ccccc1O)Cc1ccccc1O.[Na+]"
Given back: 7.67

Asked: // query pKa value for entry "CCOC(=O)CN(CCN(CC(=O)[O-])Cc1ccccc1O)Cc1ccccc1O.[Na+]"
Given back: 7.64
